Values were extracted from paper PMC8809517.

# study.target: T1, GFP-9S library array, motif 4 ND N98Y;D124Q (synthetic construct, N98Y;D124Q)
# T1 chain: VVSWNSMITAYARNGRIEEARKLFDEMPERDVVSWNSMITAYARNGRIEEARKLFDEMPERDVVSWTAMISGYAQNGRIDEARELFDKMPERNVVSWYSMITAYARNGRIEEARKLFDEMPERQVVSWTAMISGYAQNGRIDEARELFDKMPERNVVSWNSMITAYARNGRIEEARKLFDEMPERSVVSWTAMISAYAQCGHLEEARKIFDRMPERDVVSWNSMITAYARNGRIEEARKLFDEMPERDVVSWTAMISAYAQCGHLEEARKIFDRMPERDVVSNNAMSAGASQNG
# protocol.text: high-throughput RNA pulldown from lysate on Ni-NTA beads; HRP: 50 mM Tris pH 8, 150 mM NaCl, 1 mM beta-mercaptoethanol, 50 ug/ml BSA, 3 ug/ml yeast RNA, 0.5% heparin; ITC and FP: Tris pH 8, 200 mM KCl, 5% glycerol; MST: 50 mM Tris pH 8, 200 mM NaCl, 1 mM DTT, BSA, heparin, 0.05% Tween 20
# experimental.parameters: tags: N-terminal His-eGFP; label: 5' Cy5
readout.label: Kd (nM)

1. AUUACACGUGA (ssRNA) [Cy5-rpoA]: 39.5
2. AUUAGACGUGA (ssRNA) [Cy5-rpoA-G]: 49.8
